biological target: UniProt P10275; assay: Androgen receptor binding test; set-up: expressed in transfected cells; details: reference substance 3H-testosterone
Sequence (P10275 whole entry, species assumed): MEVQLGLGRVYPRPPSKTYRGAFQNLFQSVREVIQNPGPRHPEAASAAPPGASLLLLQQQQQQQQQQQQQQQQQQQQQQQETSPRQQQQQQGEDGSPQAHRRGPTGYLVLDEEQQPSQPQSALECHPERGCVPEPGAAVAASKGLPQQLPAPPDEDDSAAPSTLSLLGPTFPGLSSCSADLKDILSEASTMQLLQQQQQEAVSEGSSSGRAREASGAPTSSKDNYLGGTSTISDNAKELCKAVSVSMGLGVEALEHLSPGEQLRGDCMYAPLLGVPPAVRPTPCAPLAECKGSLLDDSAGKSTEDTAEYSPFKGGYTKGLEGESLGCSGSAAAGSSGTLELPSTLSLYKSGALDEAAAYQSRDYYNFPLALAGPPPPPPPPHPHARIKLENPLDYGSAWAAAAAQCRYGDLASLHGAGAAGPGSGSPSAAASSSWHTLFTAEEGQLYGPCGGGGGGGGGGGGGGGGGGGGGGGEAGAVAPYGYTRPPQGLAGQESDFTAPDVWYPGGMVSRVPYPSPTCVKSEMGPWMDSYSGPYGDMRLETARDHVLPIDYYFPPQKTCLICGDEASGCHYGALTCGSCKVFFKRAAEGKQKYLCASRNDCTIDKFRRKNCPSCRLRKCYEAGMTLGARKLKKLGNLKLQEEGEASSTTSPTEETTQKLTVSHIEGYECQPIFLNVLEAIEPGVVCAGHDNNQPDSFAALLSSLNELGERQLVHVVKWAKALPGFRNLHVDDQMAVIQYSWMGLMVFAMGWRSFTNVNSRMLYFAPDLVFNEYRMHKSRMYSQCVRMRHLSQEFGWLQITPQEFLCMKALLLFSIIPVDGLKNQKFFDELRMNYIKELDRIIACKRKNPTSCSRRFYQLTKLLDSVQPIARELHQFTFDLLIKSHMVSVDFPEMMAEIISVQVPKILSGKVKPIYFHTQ
property-name: Androgen receptor Competition factor

molecule | tested-target | data-value
CC[C@]12CC[C@H]3[C@@H](C[C@@H](CO)C4=CC(=O)CC[C@@H]43)[C@@H]1[C@@H]1C[C@@H]1[C@@]21C=CC(=O)O1 [Example 10] | UniProt P10275 | 1000.0
CC[C@]12CC[C@H]3[C@H]([C@@H]1[C@@H]1C[C@@H]1[C@@]21C=CC(=O)O1)[C@H](C)CC1=CC(=O)CC[C@@H]13 [Example 4A] | UniProt P10275 | 2.6
C[C@]12CC[C@H]3[C@@H](C[C@@H](CO)C4=CC(=O)CC[C@@H]43)[C@@H]1[C@@H]1C[C@@H]1[C@@]21C=CC(=O)O1 [Example 21] | UniProt P10275 | 1000.0
C[C@@H]1CC2=CC(=O)CC[C@@H]2[C@H]2CC[C@@]3(C)[C@@H]([C@@H]4C[C@@H]4[C@@]34C=CC(=O)O4)[C@@H]21 [Example 23A] | UniProt P10275 | 4.2
C=C[C@@H]1CC2=CC(=O)CC[C@@H]2[C@H]2CC[C@@]3(C)[C@@H]([C@@H]4C[C@@H]4[C@@]34C=CC(=O)O4)[C@@H]21 [Example 25A] | UniProt P10275 | 1.4
C[C@]12CC[C@H]3[C@H]([C@@H]1[C@H]1C[C@H]1[C@@]21C=CC(=O)O1)[C@H](C1CC1)CC1=CC(=O)CC[C@@H]13 [Example 17A] | UniProt P10275 | 5.2
CC[C@@H]1CC2=CC(=O)CC[C@@H]2[C@H]2CC[C@@]3(C)[C@@H]([C@H]4C[C@H]4[C@@]34C=CC(=O)O4)[C@H]12 [Example 15A] | UniProt P10275 | 2.2
C[C@]12CC[C@H]3[C@@H](CCC4=C(Cl)C(=O)CC[C@@H]43)[C@@H]1[C@@H]1C[C@@H]1[C@@]21C=CC(=O)O1 [Example 27] | UniProt P10275 | 36.4
CC[C@]12CC[C@H]3[C@@H]([C@H]4C[C@H]4C4=C(Cl)C(=O)CC[C@@H]43)[C@@H]1[C@@H]1C[C@@H]1[C@@]21C=CC(=O)O1 [Example 8] | UniProt P10275 | 240.0
CC[C@@H]1CC2=CC(=O)CC[C@@H]2[C@H]2CC[C@@]3(C)[C@@H]([C@@H]4C[C@@H]4[C@@]34C=CC(=O)O4)[C@H]12 [Example 24A] | UniProt P10275 | 8.1
CC[C@]12CC[C@H]3[C@@H]([C@@H]4C[C@@H]4C4=CC(=O)CC[C@@H]43)[C@@H]1[C@@H]1C[C@@H]1[C@@]21C=CC(=O)O1 [Example 2] | UniProt P10275 | 49.6

###

Molecular target: mineralocorticoid receptor (Homo sapiens)
Sequence (P08235 1-984): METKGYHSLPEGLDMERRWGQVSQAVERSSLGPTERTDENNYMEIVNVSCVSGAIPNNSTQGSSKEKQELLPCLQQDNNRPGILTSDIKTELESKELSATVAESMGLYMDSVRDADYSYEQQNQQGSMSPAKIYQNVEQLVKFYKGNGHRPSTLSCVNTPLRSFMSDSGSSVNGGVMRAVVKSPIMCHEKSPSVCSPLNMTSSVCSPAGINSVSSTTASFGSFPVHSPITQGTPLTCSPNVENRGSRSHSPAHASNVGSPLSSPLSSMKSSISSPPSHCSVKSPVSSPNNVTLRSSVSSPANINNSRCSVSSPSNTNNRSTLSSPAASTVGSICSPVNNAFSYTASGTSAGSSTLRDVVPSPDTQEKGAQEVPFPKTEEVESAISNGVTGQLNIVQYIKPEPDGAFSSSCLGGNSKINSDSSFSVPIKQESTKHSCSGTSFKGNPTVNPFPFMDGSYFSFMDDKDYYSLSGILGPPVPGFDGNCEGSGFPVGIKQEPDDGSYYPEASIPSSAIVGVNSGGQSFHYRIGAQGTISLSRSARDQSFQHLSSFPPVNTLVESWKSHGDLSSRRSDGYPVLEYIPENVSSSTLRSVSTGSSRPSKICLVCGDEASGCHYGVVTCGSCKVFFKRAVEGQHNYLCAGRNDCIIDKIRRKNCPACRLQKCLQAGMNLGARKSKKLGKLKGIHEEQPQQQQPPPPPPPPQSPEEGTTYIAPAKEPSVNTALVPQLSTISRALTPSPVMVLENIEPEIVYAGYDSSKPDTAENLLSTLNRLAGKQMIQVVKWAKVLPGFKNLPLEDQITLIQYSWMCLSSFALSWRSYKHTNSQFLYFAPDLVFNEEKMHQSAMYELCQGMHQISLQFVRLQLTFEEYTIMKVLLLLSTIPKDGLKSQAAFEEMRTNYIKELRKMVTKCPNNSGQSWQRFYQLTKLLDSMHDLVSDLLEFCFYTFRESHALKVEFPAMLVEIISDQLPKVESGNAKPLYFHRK
Assay: Mineralocorticoid receptor binding test
Design: made in house; host or cells: Hi5 insect cells (cytosol)
Conditions: reference substance 3H-aldosterone, cytosol from MR-expressing insect cells (Hi5)
property-name: Mineralocorticoid receptor (MR) Competition factor

compound | tested-target | data-value
C[C@]12CC[C@H]3[C@@H](CCC4=C(Cl)C(=O)CC[C@@H]43)[C@@H]1[C@H]1C[C@H]1[C@@]21C=CC(=O)O1 | mineralocorticoid receptor (Homo sapiens) | 35.0
C=C[C@@H]1CC2=CC(=O)CC[C@@H]2[C@H]2CC[C@@]3(C)[C@@H]([C@H]4C[C@H]4[C@@]34C=CC(=O)O4)[C@@H]21 [Example 16A] | mineralocorticoid receptor (Homo sapiens) | 2.0
C[C@]12CC[C@H]3[C@@H](CCC4=CC(=O)CC[C@@H]43)[C@@H]1[C@@H]1C[C@@H]1[C@@]21C=CC(=O)O1 | mineralocorticoid receptor (Homo sapiens) | 187.0
C[C@@H]1CC2=CC(=O)CC[C@@H]2[C@H]2CC[C@@]3(C)[C@@H]([C@@H]4C[C@@H]4[C@@]34C=CC(=O)O4)[C@@H]21 [Example 23A] | mineralocorticoid receptor (Homo sapiens) | 1.9
C[C@]12CC[C@H]3[C@@H](C=CC4=CC(=O)CC[C@@H]43)[C@@H]1[C@H]1C[C@H]1[C@@]21C=CC(=O)O1 | mineralocorticoid receptor (Homo sapiens) | 1.6
CC[C@@H]1CC2=CC(=O)CC[C@@H]2[C@H]2CC[C@@]3(CC)[C@@H]([C@@H]4C[C@@H]4[C@@]34C=CC(=O)O4)[C@H]12 | mineralocorticoid receptor (Homo sapiens) | 1.0
C[C@]12CC[C@H]3[C@@H](CCC4=C(Cl)C(=O)CC[C@@H]43)[C@@H]1[C@@H]1C[C@@H]1[C@@]21C=CC(=O)O1 | mineralocorticoid receptor (Homo sapiens) | 47.0
C[C@]12CC[C@H]3[C@@H](CC4(CC4)C4=CC(=O)CC[C@@H]43)[C@@H]1[C@@H]1C[C@@H]1[C@@]21C=CC(=O)O1 | mineralocorticoid receptor (Homo sapiens) | 0.8
CC[C@]12CC[C@H]3[C@@H]([C@H]4C[C@H]4C4=C(Cl)C(=O)CC[C@@H]43)[C@@H]1[C@@H]1C[C@@H]1[C@@]21C=CC(=O)O1 | mineralocorticoid receptor (Homo sapiens) | 29.0
C[C@]12CCC(=O)C=C1[C@@H]1C[C@@H]1[C@H]1[C@@H]3[C@@H]4C[C@@H]4[C@@]4(CCC(=O)O4)[C@@]3(C)CC[C@@H]12 [A, reference compound] | mineralocorticoid receptor (Homo sapiens) | 0.5
